# Subject of test: T1, GST-human NOGO-A56 (human, UniProt Q9NQC3 586-785)
# T1 construct: also called hNOGO; recombinant human NOGO; not shown: Glutathione S-transferase (GST) tag encoded by vector pGEX-6P1, N-terminal to the NOGO-A fragment; the tag and linker se
# T1 sequence: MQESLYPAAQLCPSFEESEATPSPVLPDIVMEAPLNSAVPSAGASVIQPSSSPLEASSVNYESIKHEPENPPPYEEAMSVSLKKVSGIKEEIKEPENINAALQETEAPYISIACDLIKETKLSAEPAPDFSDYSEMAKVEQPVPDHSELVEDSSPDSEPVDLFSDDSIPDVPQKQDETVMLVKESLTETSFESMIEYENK
# Procedure details: SPR (Biacore 3000), GST-human NOGO-A56 on CM5 chip, antibody as analyte; single experiment
For each of the binders below, state its koff.
Answers are plain numbers, in s⁻¹.

Observe how each entry below is paired with its result.
| Binder | Measurement units | koff |
| --- | --- | --- |
| H700L11 (antibody, human IgG1, kappa, V domains shown, Humanised 2A10; human gamma-1 mutated constant region, human kappa) VH: QVQLVQSGAEVKKPGASVKVSCKASGYTFTSYWMHWVRQAPGQGLEWIGNINPSNGGTNYNEKFKSRATLTVDKSTSTAYMELSSLRSEDTAVYYCELGQGYWGQGTLVTVSS VL: DIVITQSPLSLPVTLGQPASISCRSSKSLLYKDGKTYLNWFQQRPGQSPQLLIYLMSTRASGVPDRFSGGGSGTDFTLKISRVEAEDVGVYYCQQLVEYPLTFGQGTKLEIKR | s⁻¹ | 0.0233 |
| H6L13 (antibody, human IgG1, kappa, V domains shown, Humanised 2A10; human gamma-1 mutated constant region, human kappa; also called H6L13 FL) VH: QVQLVQSGAEVKKPGASVKVSCKASGYTFTSYWMHWVRQAPGQGLEWIGNINPSNGGTNYNEKFKSRATMTRDTSTSTAYMELSSLRSEDTAVYYCELGQGYWGQGTLVTVSS VL: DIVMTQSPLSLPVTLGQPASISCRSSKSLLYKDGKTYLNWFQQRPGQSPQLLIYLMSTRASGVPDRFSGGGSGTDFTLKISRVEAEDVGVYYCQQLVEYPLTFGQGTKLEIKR | s⁻¹ | 0.0233 |
| H5L6 (antibody, human IgG1, kappa, V domains shown, Humanised 2A10; human gamma-1 mutated constant region, human kappa) VH: QVQLVQSGAEVKKPGASVKVSCKASGYTFTSYWMHWVRQAPGQGLEWMGNINPSNGGTNYNEKFKSRVTMTRDTSTSTAYMELSSLRSEDTAVYYCELGQGYWGQGTLVTVSS VL: DIVMTQSPLSLPVTPGEPASISCRSSKSLLYKDGKTYLNWFLQRPGQSPQLLIYLMSTRASGVPDRFSGSGSGTDFTLKISRVEAEDVGVYYCQQLVEYPLTFGGGTKVEIKR | s⁻¹ | 0.047 |

Quick note, koff for H10L13 (antibody, V domains shown) VH: QVQLVQSGAEVKKPGASVKLSCKASGYTFTSYWMHWVKQAPGQGLEWIGNINPSNGGTNYNEKFKSRATLTVDKSTSTAYMELSSLRSEDTAVYYCELGQGYWGQGTLVTVSS VL: DIVMTQSPLSLPVTLGQPASISCRSSKSLLYKDGKTYLNWFQQRPGQSPQLLIYLMSTRASGVPDRFSGGGSGTDFTLKISRVEAEDVGVYYCQQLVEYPLTFGQGTKLEIK landed at 0.0212
